Test system: ACHN renal
Hello, when you answer, please use one of the following outcomes: y (active), n (inactive)

Identify the outcome logged in this assay for the compound shown: "O=C1Cc2cc(CCn3ccnc3)c(Cl)cc2N1"
n

###

System: HCT-116 colon
Hello, when you answer, please use one of the following outcomes: active, inactive

[
  {
    "compound": "CCN1CCN(CCOc2ccc(CNc3ccc4nc(CCC5CCCCC5)[nH]c4c3)cc2)CC1",
    "cat": "inactive"
  },
  {
    "compound": "O=S(=O)(NCCNc1nccc(-c2c(-c3cccc(O)c3)nc3sccn23)n1)c1ccc(F)cc1",
    "cat": "inactive"
  },
  {
    "compound": "C=CCN1C(=O)/C(=c2\\sc3n(c2=O)C2C(NN=3)N(CC)C(=O)N2CC)c2ccccc21 (centres undefined)",
    "cat": "active"
  }
]

Moving on to another compound below.
Identify the outcome logged in this assay for the compound shown: "CC1=C(N2CC2)C(=O)C(CO)=C(N2CC2)C1=O"
active

###

Record type: GI50 measurement. Applies to: NCI-H23 lung

[
  {
    "input_smiles": "O=C(N[C@H](c1ccc(Cl)c(Cl)c1)C1CNC1)c1ccc2cnccc2c1",
    "measurement_target": "NCI-H23 lung",
    "GI50": "5.83 µM"
  },
  {
    "input_smiles": "CCOc1ccc(Cc2nccc3cc(OCC)c(OCC)cc23)cc1OCC",
    "measurement_target": "NCI-H23 lung",
    "GI50": "1.93 µM"
  },
  {
    "input_smiles": "CCN1CCC[C@H]1c1cc(O)c2c(c1OC)C[C@H]1C[C@H]3[C@H](N)C(=O)C(C(N)=O)=C(O)[C@@]3(O)C(=O)C1=C2O",
    "measurement_target": "NCI-H23 lung",
    "GI50": "0.167 µM"
  }
]

As a next step, examine the compound that follows.
Tested on NCI-H23 lung, the item "CCOP(=O)(CCP(=O)(OCC)OCC)OCC.C[CH2][Sn]([Cl])([Cl])[CH2]C" showed GI50 equal to 19.9 µM

###

Test system: SF-295 CNS
test_summary: NCI tumour cell line growth inhibition, 48 h
Listed here: items and their measured TGI.

[
  {
    "compound": "CN(C)CCNC(=O)c1cccc2nc3ccc4ccccc4c3nc12",
    "measurement_target": "SF-295 CNS",
    "quantity_name": "TGI",
    "data_value": "0.53 µM"
  }
]

Lab note: measured TGI of "O=C(N/N=C(/COc1cccc(Cl)c1)N=Cc1ccncc1)c1ccncc1" was > 100 µM

Lab note: measured TGI of "COc1ccc2nc(-c3ccc(OC(=O)N(C)C)cc3)cn2c1" was > 100 µM

Lab note: measured TGI of "CCN1CCC[C@H]1c1cc(O)c2c(c1OC)C[C@H]1C[C@H]3[C@H](N)C(=O)C(C(N)=O)=C(O)[C@@]3(O)C(=O)C1=C2O" was 3.8 µM

###

Test system: LXFL 529 NSCLC
test_summary: NCI tumour cell line growth inhibition, 48 h
quantity_name: TGI

Use these answered entries as a reference point.
[
  {
    "molecule": "CC(=O)OC1(C#N)CC2OC1C1C2N1C(=O)c1ccccc1 (stereo not given)",
    "data_value": "> 100 µM"
  },
  {
    "molecule": "OC1CN(OC/C=C/c2ccccc2)CC(O)C1O (stereo not given)",
    "data_value": "> 100 µM"
  },
  {
    "molecule": "C/C(CN1C(=O)c2ccccc2C1=O)=N\\NS(=O)(=O)c1ccccc1",
    "data_value": "> 100 µM"
  }
]

As a next step, examine the molecule that follows.
Lab note: measured TGI of "O=c1[nH]c(=S)[nH]c2c1sc(=S)n2-c1ccccc1" was > 100 µM
